target: FGF2 (Homo sapiens, UniProt P09038 P09038:135-288); experiment: inhibition; SPR inhibition of FGF2-FGFR1alpha(IIIc); each 0.1 uM; settings: tags: Peprotech
Sequence (P09038 135-288, one chain of several): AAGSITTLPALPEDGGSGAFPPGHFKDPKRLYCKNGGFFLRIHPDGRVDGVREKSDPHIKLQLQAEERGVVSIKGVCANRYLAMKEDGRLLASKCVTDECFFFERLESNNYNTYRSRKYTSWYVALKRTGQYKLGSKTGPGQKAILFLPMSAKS
Assay endpoint: activity
Form entry: enter the amount, then its unit.

• GGGAUACUAGGGCAUUAAUGUUACCAGUGUAGUCCC (ssRNA, 2'-F at U8,U16,U21,U28,U30; 2'-OH at G12,G27,G29; all others 2'-OMe; PS between G12 and C13) [aptamer ID 3(29)] = 91%
• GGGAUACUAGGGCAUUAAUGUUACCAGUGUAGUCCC (ssRNA, 2'-F at U8,U16,U21,U28,U30; 2'-OH at G12,G27,G29; all others 2'-OMe; PS between A26 and G27) [aptamer ID 3(30)] = 99%
• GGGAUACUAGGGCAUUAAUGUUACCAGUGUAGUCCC (ssRNA, all C and U 2'-F; 2'-OMe at G1,G2,G3,A4; other purines 2'-OH) [aptamer ID 3(2)] = 89%

(Q) What measured activity goes with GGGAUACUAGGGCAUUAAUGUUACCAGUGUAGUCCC (ssRNA, all C and U 2'-F; 2'-OMe at A26; other purines 2'-OH) [aptamer ID 3(7)] ?
(A) 89%

(Q) Consider next the binder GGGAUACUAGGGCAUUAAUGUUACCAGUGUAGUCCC (ssRNA, 2'-OMe at G1,G2,G3,A4,A9,G10,G11,A14,U15,U16,A17,A18,U19,G20,A23,A26; other C and U 2'-F; other purines 2'-OH) [aptamer ID 3(13)] in the same way.
(A) 88%

(Q) Consider next the binder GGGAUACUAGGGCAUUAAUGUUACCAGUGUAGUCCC (ssRNA, all C and U 2'-F; 2'-OMe at A31; other purines 2'-OH) [aptamer ID 3(11)] in the same way.
(A) 88%
